# Measurement Notes: NCI Yeast Anticancer Drug Screen. Data for the sgs1 mgt1 strain (AID 161);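 also: 0% = growth of cultures given vehicle only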
# Applied Conditions: S. cerevisiae sgs1 mgt1 strain, at 50.0 µM, active compounds read high
About 79,000 compounds went through this panel and 15% of them were active in at least one assay; those are over-represented in the sample as a whole. Active and inactive are the calls of the source. Rule as the data show it: active = growth inhibition above about 70%; inactive = the rest.
What growth inhibition was measured for each of the following?

Task: Tell me the measured growth inhibition of COC(=O)c1ccc2c(c1)CC1(C2)Cc2ccccc2C1=O (stereo not drawn) , please.
Output: 83.5% (active)

Task: Also check CCCCc1[nH]ccc2c(C)c3nc4ccccc4c3cc12
Output: 97.5% (active)

Task: Same thing, different compound: Cc1cc(O)ccc1C1(c2ccc(F)cc2)OC(=O)c2ccccc21 (stereo not drawn)
Output: 88.2% (active)

Task: Continue with OC(COc1ccc(Cl)cc1)COc1ccc(Cl)cc1
Output: 99.4% (active)

Task: And then CC(NC(=O)OCc1ccccc1)C(=O)NNc1ccccc1Cl (stereo not drawn) , what is it?
Output: 91.4% (active)

Task: Please give the result for CC(=O)C(C(C)=O)C1C=CC=CC=C1 too.
Output: 91.8% (active)

Task: Let us now turn to c1ccc2nc3[nH]c4ccccc4c3cc2c1
Output: 50.8% (inactive)

Task: Input CCCCCCCCCCCCCCCCCCNC(=S)/N=C/c1c(O)cc(C)oc1=O
Output: 57% (inactive)

====

# Measurement Notes: NCI Yeast Anticancer Drug Screen. Data for the mlh1 rad18 strain (AID 175)
# Applied Conditions: S. cerevisiae mlh1 rad18 strain growth inhibition; at 50.0 µM (retest, dose inferred, filed as 5.0); active compounds read high
This is part of a sample that, as a whole, favours compounds with a hit. Of some 79,000 tested, about 15% had one in any assay.
Readout Kind: growth inhibition (%)
Provide the reading as a plain figure in %.

Task: Look up growth inhibition: FC(F)(F)c1nc(Cl)nc2nc[nH]c12
Output: -8

Task: Same question, CCCCCCCCCCCCc1ccc(S(=O)(=O)O)cc1.[Zn+2] this time
Output: 71

Task: Check O=C(NCCl)Nc1ccccc1 too.
Output: 83

Task: Let us now turn to C[n+]1cc2c3ccccc3ccc2c2ccccc21
Output: 83

Task: Try the compound CC(=O)OC1CCC2(C)C(=CCC3C2CCC2(C)C(C(C)N)CCC32)C1 (stereo not drawn)
Output: 98

Task: Check CC(=O)Oc1c(-c2ccccc2)cc([N+](=O)[O-])cc1[N+](=O)[O-] too.
Output: 97

Task: What do you get for C/C(CCn1[nH]c(=O)ccc1=O)=N\NS(=O)(=O)c1ccc(C)cc1 ?
Output: 11

Task: Consider next the compound CC(C)(c1ccc(OC#N)cc1)c1ccc(OC#N)cc1 in the same way.
Output: 59

Task: Next up: CCN(CC)CCNc1ccc(C)c2oc3ccc(O)cc3c(=O)c12
Output: 43

Task: Field entry: ICCCCCCCCCC[n+]1ccc2ccccc2c1
Output: 96

Task: Would you mind doing COC(=O)c1ccccc1C=C(c1ccc([N+](=O)[O-])cc1)c1ccc([N+](=O)[O-])cc1 as well?
Output: 97

Task: Likewise for O=[N+]([O-])c1cccc2c1[nH]c1c(-c3ccccc3)nccc12 ?
Output: 89

Task: Please answer likewise for O=C1OC(=O)C2C1C1(c3ccccc3)OC2(c2ccccc2)c2c(Br)c(Br)c(Br)c(Br)c21 (stereo not drawn)
Output: 99

Task: Try CC(=O)Oc1c([N+](=O)[O-])cc(-c2ccccc2)cc1[N+](=O)[O-] next.
Output: 99

Task: // repeat for COc1ccccc1C(c1cc2c(cc1O)OCO2)N1CCOCC1 (stereo not drawn) and report
Output: 98

Task: Now the same for CC[C@]1(O)C[C@H]2[C@@H]3CCc4cc(OC)ccc4[C@H]3CC[C@]2(C)[C@H]1O
Output: 99

Task: CN1C(OCc2ccccc2)c2c(ccc3c2OCO3)C2C=Cc3cc4c(cc3C21)OCO4 (stereo not drawn) , same question.
Output: 99

Task: Note, next up: CC(CC(C)[C@H]1CCC2[C@H]3C(CC(=O)[C@@]21C)[C@@]1(C)CCC(O)C[C@H]1C[C@@H]3O)C(=O)O (stereo partly drawn)
Output: 99

Task: Ok, now COC(=O)c1ccc(NN)cc1
Output: 42

Task: Then what about the compound O=C(Nc1cccc2ccccc12)OCC1CCc2ccccc2C1 (stereo not drawn) ?
Output: 27

Task: Okay, and COC(CC[P+](c1ccccc1)(c1ccccc1)c1ccccc1)(C(=O)c1ccccc1)c1ccccc1 (stereo not drawn) ?
Output: 100

Task: Thanks! And CC12C(=O)OC(=O)C1C1c3ccccc3C2c2ccccc21 (stereo not drawn) ?
Output: 99

Task: Try this compound too: Nc1c(-c2ccc(Cl)cc2)[n+]([O-])c2ccccc2[n+]1[O-]
Output: 6

Task: Now the same for NCCCN1c2ccccc2Sc2ccc(Cl)cc21
Output: 98

Task: Note, next up: O=C(CC(O)(c1ccccc1)c1ccc(Cl)cc1)NC(=O)c1ccccc1O (stereo not drawn)
Output: 97

Task: Moving on to the next compound: CCC(C)Sc1nc2c([nH]1)c(=S)n(C)c(=O)n2C (stereo not drawn)
Output: 24

Task: // query: COc1cc(Cc2n[nH]c(=S)n2-c2ccccc2)c(S(N)(=O)=O)cc1OC
Output: -62

Task: Another compound: CCN(CC)CCC(=O)/C=C/c1ccc(Cl)c(Cl)c1
Output: 98

Task: Subsequent entry: CCC(c1ccc(O)cc1)C(O)(CC)c1ccc(O)cc1 (stereo not drawn)
Output: -8

Task: Proceed to Cc1ccc(S(=O)(=O)NCCSSCCNS(=O)(=O)c2ccc(C)cc2)cc1
Output: 96

Task: Thanks! And S=C(Nc1ccc(N=Nc2ccccc2)cc1)SCc1ccccc1 ?
Output: 59

Task: And the next one, Oc1ccc(-c2nnc(-c3ccc(Cl)cc3Cl)o2)cc1 ?
Output: 76

Task: What do you get for Cc1ccccc1NC(=O)c1cc2cc(N=Nc3ccccc3C(=O)O)ccc2oc1=O ?
Output: 49
